# ASSAYED TARGET: LZK (Homo sapiens, UniProt O43283)
# Construct: 10 nM LZK, catalytic domain, Carna Biosiences in assay buffer; purchased Carna Biosciences ('Carna Biosiences' [sic])
# Sequence (O43283 168-409 limits assumed): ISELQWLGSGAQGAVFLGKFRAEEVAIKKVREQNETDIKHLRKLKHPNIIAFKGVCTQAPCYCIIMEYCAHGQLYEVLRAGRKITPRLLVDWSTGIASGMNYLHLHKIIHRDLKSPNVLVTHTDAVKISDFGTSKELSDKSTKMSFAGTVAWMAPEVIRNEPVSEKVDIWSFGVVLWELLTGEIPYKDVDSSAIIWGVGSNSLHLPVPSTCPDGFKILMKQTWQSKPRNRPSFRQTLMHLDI
# ASSAY NAME: LZK biochemical assay (TR-FRET, MKK7 phosphorylation)
# EXPERIMENTAL SETUP: LZK catalytic domain, MKK7 substrate, 15 μM ATP
# Protocol: LZK assay is a biochemical assay format designed to screen for inhibitors of LZK. Enzymatic activity of LZK is measured by monitoring phosphorylation of the physiological substrate MKK7 (MAP2K7, Dual specificity mitogen-activated protein kinase kinase 7). Phosphorylation is detected by a TR-FRET system whereby His-tagged MKK7 is labeled by a XL665-labeled anti-His antibody (FRET acceptor, emission 665 nm). […]
Record form. Attribute: IC50. Fill in for each entry.

Sample CCC(c1ccc(OC(F)(F)F)nc1)n1cc(-c2cc(C(=O)NC(C)(C)CO)c3nc(N)nn3c2)cn1 (single isomer, unassigned) [Example I-171] , system: LZK (Homo sapiens, UniProt O43283). Its IC50 is 150 nM

Sample CC[C@H](C)NC(=O)c1cc(-c2cnn(C(c3ccccc3)C3CCC3)c2)cn2nc(N)nc12 (mixture of isomers) [Example I-27] , system: LZK (Homo sapiens, UniProt O43283). Its IC50 is 390 nM

Sample CCC(c1cncc(Cl)c1)n1cc(-c2cc(C(=O)N[C@@H](C)CC)c3nc(N)nn3c2)cn1 (mixture of isomers) [Example I-58] , system: LZK (Homo sapiens, UniProt O43283). Its IC50 is 16 nM

Sample CC(CF)NC(=O)c1cc(-c2cnn(C(c3ccccc3)C(C)C)c2)cn2nc(N)nc12 (single isomer, unassigned) [Example I-142] , system: LZK (Homo sapiens, UniProt O43283). Its IC50 is 240 nM

Sample CC[C@H](C)NC(=O)c1cc(-c2cnn(C(c3ccc(C(F)F)nc3)C(C)C)c2)cn2nc(N)nc12 (single isomer, unassigned) [Example I-69] , system: LZK (Homo sapiens, UniProt O43283). Its IC50 is 3.9 nM

Sample CC[C@H](C)NC(=O)c1cc(-c2cnn(C(c3ccc(C(F)F)nc3)C3CC3)c2)cc2nc(N)nn12 (single isomer, unassigned) [Example I-99] , system: LZK (Homo sapiens, UniProt O43283). Its IC50 is 14 nM
